Ref: paper PMC11597207

Target: COX-1 (Ovis aries, UniProt P05979)
Sequence (P05979 25-600): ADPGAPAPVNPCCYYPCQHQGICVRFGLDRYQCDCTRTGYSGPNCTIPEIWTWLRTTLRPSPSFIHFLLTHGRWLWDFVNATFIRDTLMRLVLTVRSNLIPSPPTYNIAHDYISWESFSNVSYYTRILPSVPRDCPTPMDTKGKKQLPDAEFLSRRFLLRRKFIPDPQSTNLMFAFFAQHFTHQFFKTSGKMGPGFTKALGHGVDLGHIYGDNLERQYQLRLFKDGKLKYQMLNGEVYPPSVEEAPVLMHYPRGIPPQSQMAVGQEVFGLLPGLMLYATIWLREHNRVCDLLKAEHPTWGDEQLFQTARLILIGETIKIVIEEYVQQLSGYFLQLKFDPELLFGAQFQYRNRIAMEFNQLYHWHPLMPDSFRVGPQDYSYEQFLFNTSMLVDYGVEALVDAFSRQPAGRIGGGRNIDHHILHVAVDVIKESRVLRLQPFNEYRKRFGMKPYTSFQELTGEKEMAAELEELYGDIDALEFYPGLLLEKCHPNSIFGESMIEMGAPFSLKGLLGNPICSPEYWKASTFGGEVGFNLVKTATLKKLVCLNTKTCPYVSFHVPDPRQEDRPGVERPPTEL
Reported Metric: IC50

{"columns": ["Compound", "Experimental Target", "Reported Metric", "Measured Value"],
 "data": [
  ["CCOC(=O)C(C)(C)C1CC(=O)N(c2ccccc2)C1=O (stereo not shown) [MAK01]", "COX-1 (Ovis aries, UniProt P05979)", "IC50", "1090 µM"]
]}
